Hi there, I'd appreciate the recorded MIC for every entry that follows.
tested on: Acinetobacter calcoaceticus; assay: Antibacterial activity against Acinetobacter calcoaceticus assessed as inhibition of bacterial growth by two-fold serial broth dilution method; type: functional
Numbers only, in µg/mL.

Consider the following illustrative entries.
sample_smiles | reported_endpoint | quantity_unit | quantitative_result
CC1(C)S[C@@H]2[C@H](NC(=O)[C@H](N)c3ccc(O)cc3)C(=O)N2[C@H]1C(=O)O | MIC | µg/mL | 50
C#CCNc1nc(NN2C(=O)c3cccc4cccc(c34)C2=O)nc(N2CCOCC2)n1 | MIC | µg/mL | 200

Working through the 4 compounds below one at a time, give MIC for each.
1. N#Cc1ccc(CNc2nc(NN3C(=O)c4cccc5cccc(c45)C3=O)nc(N3CCOCC3)n2)cc1
2. C=CCNc1nc(NN2C(=O)c3cccc4cccc(c34)C2=O)nc(N2CCOCC2)n1
3. O=C1c2cccc3cccc(c23)C(=O)N1Nc1nc(NC2CCCCC2)nc(N2CCOCC2)n1
4. O=C1c2cccc3cccc(c23)C(=O)N1Nc1nc(N2CCOCC2)nc(N2CCN(Cc3ccccc3)CC2)n1

Output:
[100, 100, 200, 200]

Working through the 3 compounds below one at a time, give MIC for each.
1. CCN(CC)CCNc1nc(NN2C(=O)c3cccc4cccc(c34)C2=O)nc(N2CCOCC2)n1
2. CN(C)CCNc1nc(NN2C(=O)c3cccc4cccc(c34)C2=O)nc(N2CCOCC2)n1
3. CCCCNc1nc(NN2C(=O)c3cccc4cccc(c34)C2=O)nc(N2CCOCC2)n1

Output:
1. 200
2. 100
3. 200

---

tested on: Acinetobacter calcoaceticus; assay: Antibacterial activity against Acinetobacter calcoaceticus assessed as inhibition of bacterial growth by two-fold serial broth dilution method; assay type: functional
reported_endpoint: MIC (µg/mL)
Numbers only, in µg/mL.

sample_smiles | quantitative_result
O=C1c2cccc3cccc(c23)C(=O)N1Nc1nc(N2CCCCC2)nc(N2CCOCC2)n1 | 200
O=C1c2cccc3cccc(c23)C(=O)N1Nc1nc(N2CCOCC2)nc(N2CCOCC2)n1 | 200
O=C1c2cccc3cccc(c23)C(=O)N1Nc1nc(NCc2ccc(F)cc2)nc(N2CCOCC2)n1 | 100
O=C1c2cccc3cccc(c23)C(=O)N1Nc1nc(NCc2ccccc2)nc(N2CCOCC2)n1 | 200
O=C1c2cccc3cccc(c23)C(=O)N1Nc1nc(NCCN2CCOCC2)nc(N2CCOCC2)n1 | 200
c1ccc(CNc2nc(NCc3ccccc3)nc(N3CCOCC3)n2)cc1 | 200

Working through the 3 molecules below one at a time, give MIC for each.
1. CCN1CCN(c2nc(NN3C(=O)c4cccc5cccc(c45)C3=O)nc(N3CCOCC3)n2)CC1
2. COc1ccc(CNc2nc(NN3C(=O)c4cccc5cccc(c45)C3=O)nc(N3CCOCC3)n2)cc1
3. O=C1c2cccc3cccc(c23)C(=O)N1Nc1nc(Nc2ccc(F)cc2)nc(N2CCOCC2)n1

Output:
[200, 100, 200]

---

system: Acinetobacter calcoaceticus; experiment: Antibacterial activity against Acinetobacter calcoaceticus assessed as inhibition of bacterial growth by two-fold serial broth dilution method; type: functional
reported_endpoint: MIC (µg/mL)
Numbers only, in µg/mL.

Consider the following illustrative entries.
sample_smiles | quantity_unit | MIC
Cc1ccc(CNc2nc(NN3C(=O)c4cccc5cccc(c45)C3=O)nc(N3CCOCC3)n2)cc1 | µg/mL | 100
CN1CCN(c2nc(NN3C(=O)c4cccc5cccc(c45)C3=O)nc(N3CCOCC3)n2)CC1 | µg/mL | 200

# evaluate next
"O=C1c2cccc3cccc(c23)C(=O)N1Nc1nc(N2CCOCC2)nc(N2CCN(c3ccccc3)CC2)n1" yielded MIC of 200

Where these numbers come from: ChEMBL document CHEMBL5620398
